Recorded measurements of EC50 hGlucagon-R (cAMP), one per entry
Assayed system: human glucagon receptor (human, UniProt P47871 26-477)
Sequence (P47871 26-477): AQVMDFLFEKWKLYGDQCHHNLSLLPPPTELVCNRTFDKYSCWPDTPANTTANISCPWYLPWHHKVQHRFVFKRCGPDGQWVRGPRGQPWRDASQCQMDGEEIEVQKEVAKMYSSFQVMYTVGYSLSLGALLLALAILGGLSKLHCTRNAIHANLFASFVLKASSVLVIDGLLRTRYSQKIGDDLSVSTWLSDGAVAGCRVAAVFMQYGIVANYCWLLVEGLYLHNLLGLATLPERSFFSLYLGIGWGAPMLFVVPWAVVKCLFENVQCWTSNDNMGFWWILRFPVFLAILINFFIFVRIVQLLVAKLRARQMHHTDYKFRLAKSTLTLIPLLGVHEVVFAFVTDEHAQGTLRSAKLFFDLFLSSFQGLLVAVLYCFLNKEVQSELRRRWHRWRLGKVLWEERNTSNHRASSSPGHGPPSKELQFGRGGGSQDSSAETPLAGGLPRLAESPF
Assay protocol: cell-based or functional assay
Square brackets hold non-standard residues; d marks the D form. Ends that are not written are not given here. x53 = not defined here; Aib = CC(C)(N)C(=O)O
Report the figure in nM without appending any unit label.

- Binder: "HXQGTFTSDLSKQKDSKRAXDFIEWLKAGGPSSGAPPPS (dSer at 2; K(γE-x70) at 14; Aib at 20; C-terminal NH2) [SEQ ID NO: 196]"
  EC50 hGlucagon-R (cAMP) / nM: 0.0018
- Binder: "HXQGTFTSDLSKQKESRRAQDFIEWLKNGGPSSGAPPPK (dSer at 2; K(x53) at 14; C-terminal NH2) [SEQ ID NO: 114]"
  EC50 hGlucagon-R (cAMP) / nM: 0.0311
- Binder: "HXQGTFTSDLSKQKEEEAAKLFIEWLKAGGPSSGAPPPS (dSer at 2; K(γE-x53) at 14; C-terminal NH2) [SEQ ID NO: 19]"
  EC50 hGlucagon-R (cAMP) / nM: 0.104
- Binder: "HXQGTFTSDLSKQKESEAAQDFIEWLKAGGPSSGAPPPS (dSer at 2; K(γE-x53) at 14; C-terminal NH2) [SEQ ID NO: 20]"
  EC50 hGlucagon-R (cAMP) / nM: 0.104
- Binder: "HXQGTFTSDLSKQKESRAAQLFIEWLKAGGPSSGAPPPS (dSer at 2; K(γE-x53) at 14; C-terminal NH2) [SEQ ID NO: 70]"
  EC50 hGlucagon-R (cAMP) / nM: 0.0409

From here, focus on the item given below.
Exercise: Entry H[Aib]QGTFTSDLSKQK(x53)ESKAAQDFIEWLKAGGPSSGAPPPS-NH2 (reading uncertain) [SEQ ID NO: 33] : reported EC50 hGlucagon-R (cAMP) = ?
Solution: 0.473
